Biological target: GRASP55 PDZ12, untagged PDZ tandem of GRASP55 (mouse, UniProt Q99JX3 2-208)
Test: ITC; GRASP55 protein in the cell (70-150 uM), JAM peptide in the syringe (800-2250 uM); 298 K (25 °C); 100 mM NaPO4 buffer pH 7.5; MicroCal ITC200; one-site fit
Conditions: both partners purified
READOUT KIND: Kd

Record NYIRTSEEGDFRHKSSFVI (Junctional Adhesion Molecule-C (JAM-C), mouse, encoded by Jam3, carboxy-terminal 19 amino acids; source: synthetic peptide (Covalab, France)) [JAM-C peptide, carboxy-terminal 19-mer (JAM-C_P19)] . Reported Kd: 3.8 µM
